Numbers sourced from paper PMC5383425.

experimental.target: T1, ecdTDR F279 alanine mutant (Arabidopsis thaliana, UniProt Q9FII5 30-642, alanine substitution of F279)
T1 sequence: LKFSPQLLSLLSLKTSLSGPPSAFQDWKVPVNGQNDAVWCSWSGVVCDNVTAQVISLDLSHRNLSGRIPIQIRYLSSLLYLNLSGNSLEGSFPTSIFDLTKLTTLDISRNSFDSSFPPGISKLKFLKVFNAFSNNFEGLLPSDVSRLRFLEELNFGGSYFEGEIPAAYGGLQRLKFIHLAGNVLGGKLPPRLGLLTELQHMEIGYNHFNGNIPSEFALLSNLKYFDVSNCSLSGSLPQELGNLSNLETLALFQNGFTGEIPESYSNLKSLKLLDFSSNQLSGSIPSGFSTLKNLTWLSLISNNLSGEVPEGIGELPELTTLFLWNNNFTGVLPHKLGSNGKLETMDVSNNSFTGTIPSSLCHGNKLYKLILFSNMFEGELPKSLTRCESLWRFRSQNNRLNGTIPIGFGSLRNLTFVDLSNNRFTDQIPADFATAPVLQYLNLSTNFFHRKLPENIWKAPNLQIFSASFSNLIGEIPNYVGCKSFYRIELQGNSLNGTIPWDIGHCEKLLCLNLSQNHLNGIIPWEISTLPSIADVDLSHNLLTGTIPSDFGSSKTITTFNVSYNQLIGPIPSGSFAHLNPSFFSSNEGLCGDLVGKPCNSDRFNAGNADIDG
protocol.description: ITC
Square brackets hold non-standard residues; d marks the D form. Ends that are not written are not given here. Hyp = O=C(O)[C@@H]1C[C@@H](O)CN1
parameter.measured: Kd (nM)
Write the answer as a number in nM, unit excluded.

Kd measured on HEV[Hyp]SG[Hyp]NPISN (TDIF, the 12-residue CLE peptide processed from CLE41 and CLE44 of A. thaliana; printed as HEV(Hyp)SG(Hyp)NPISN; numbers count on: the 12-residue peptide; CLE44 encodes the same peptide; also called wild type TDIF; wtTDIF; source: synthetic peptide (peptide 2.0)) [Tracheary Element Differentiation Inhibitory Factor (TDIF) peptide] = 307
